- targetDesc: recombinant human GST-SYK (Homo sapiens)
- Construct: purchased Carna Biosciences 08-176
- experiment: Homogeneous Time-Resolved Fluorescence (HTRF) assay for the recombinant human Syk enzyme
- Assay type: biochemical
- conditionDetails: HTRF assay, recombinant human GST-SYK; IC50 given as class symbols; read-out: rhSYK Activity
pIC50: −log10 of the molar value.
pIC50 values for the compounds below.

# compound, pIC50
data = [
    ("CCNC(=O)Nc1cc(Nc2nccc(C(F)(F)F)n2)cc(-c2ccc(C(=O)O)nc2)c1", "> 7.00"),
    ("CCC(CO)NC(=O)c1ccc(-c2cc(C)cc(Nc3nccc(C(F)(F)F)n3)c2)cn1 (stereo not shown)", "6.00 to 7.00"),
    ("Cc1cc(Nc2nccc(C(F)(F)F)n2)cc(-c2ccnc(C3(O)CCC(C(=O)O)C(C)(C)C3)c2)c1 (single isomer, unassigned)", "> 7.00"),
    ("Cc1cc(Nc2nccc(C(F)(F)F)n2)cc(-c2ccc(C34CCC(C(=O)O3)C(C)(C)C4)nc2)c1 (single isomer, unassigned) [Example 9.10]", "6.00 to 7.00"),
    ("Cc1cc(Nc2nccc(C(F)(F)F)n2)cc(-c2ccc(C(=O)NC(C)(CO)CO)nc2)c1", "> 7.00"),
    ("Cc1cc(Nc2nccc(C(F)(F)F)n2)cc(-c2ccc(NCc3cn(C)cn3)nc2)c1", "> 7.00"),
    ("Cc1cc(Nc2nccc(C(F)(F)F)n2)cc(-c2ccc(N3CCC4(CCN(C)C4=O)CC3)nc2)c1", "6.00 to 7.00"),
]

Cited source for all entries: patent US9376418B2
